Every entry's value here was drawn from patent US12281162.

Each entry below carries its recorded Bottom.
Target: T1, human G-protein-coupled receptor family C group 5 member D (GPRC5D) (human, UniProt Q9NZD1 1-345)
T1 construct: whole, on cells; also called human GPRC5D protein
T1 sequence (Q9NZD1 whole entry): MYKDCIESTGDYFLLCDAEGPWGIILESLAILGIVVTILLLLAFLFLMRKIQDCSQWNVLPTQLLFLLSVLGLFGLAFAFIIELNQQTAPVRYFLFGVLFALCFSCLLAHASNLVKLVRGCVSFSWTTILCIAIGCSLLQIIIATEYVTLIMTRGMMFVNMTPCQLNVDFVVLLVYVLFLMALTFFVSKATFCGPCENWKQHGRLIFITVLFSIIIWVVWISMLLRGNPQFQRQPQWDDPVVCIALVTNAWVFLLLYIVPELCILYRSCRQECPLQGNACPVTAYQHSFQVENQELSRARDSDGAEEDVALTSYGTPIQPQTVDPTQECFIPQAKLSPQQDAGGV
Experiment: FACS, CHO-K1/GPRC5D
Please give only the number in your answer, with no unit.

binder | numeric-readout
34-H1L1 (antibody, V domains shown, humanized 34D3H1, VH v1 x VL v1) VH: EVQLVESGGGLVKPGGSLRLSCAASGFTFSSYGMSWVRQAPGKGLEWVSTISSGGSYTYYPDSVKGRFTISRDNAKNSLYLQMNSLRAEDTAVYYCARQGGDAMDYWGQGTLVTVSS VL: DIQMTQSPSSLSASVGDRVTITCRASQSINNNLHWYQQKPGKAPKLLIYYASQSISGVPSRFSGSGSGTDFTLTISSLQPEDFATYYCQQSNSRLTFGGGTKVEIK | 10900

Switching to the query record.
Query: Param item = 34-H1L4 (antibody, V domains shown, humanized 34D3H1, VH v1 x VL v4) VH: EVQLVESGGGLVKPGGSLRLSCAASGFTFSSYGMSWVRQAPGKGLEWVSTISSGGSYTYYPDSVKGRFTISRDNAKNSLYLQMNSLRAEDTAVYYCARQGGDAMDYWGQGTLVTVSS VL: DIVLTQSPSSLSVSVGDRVTLTCRASQSINNNLHWYQQKPGKSPKLLIYYASQSISGIPSRFSGSGSGTDFTLTISSVQPEDFATYFCQQSNSRLTFGGGTKLEIK ; retrieve measured Bottom.
Reply: 10300
